Biological target: full-length beta-Catenin (Uniprot ID P35222) (Homo sapiens (Human)) (UniProt P35222)
Sequence (P35222 whole entry): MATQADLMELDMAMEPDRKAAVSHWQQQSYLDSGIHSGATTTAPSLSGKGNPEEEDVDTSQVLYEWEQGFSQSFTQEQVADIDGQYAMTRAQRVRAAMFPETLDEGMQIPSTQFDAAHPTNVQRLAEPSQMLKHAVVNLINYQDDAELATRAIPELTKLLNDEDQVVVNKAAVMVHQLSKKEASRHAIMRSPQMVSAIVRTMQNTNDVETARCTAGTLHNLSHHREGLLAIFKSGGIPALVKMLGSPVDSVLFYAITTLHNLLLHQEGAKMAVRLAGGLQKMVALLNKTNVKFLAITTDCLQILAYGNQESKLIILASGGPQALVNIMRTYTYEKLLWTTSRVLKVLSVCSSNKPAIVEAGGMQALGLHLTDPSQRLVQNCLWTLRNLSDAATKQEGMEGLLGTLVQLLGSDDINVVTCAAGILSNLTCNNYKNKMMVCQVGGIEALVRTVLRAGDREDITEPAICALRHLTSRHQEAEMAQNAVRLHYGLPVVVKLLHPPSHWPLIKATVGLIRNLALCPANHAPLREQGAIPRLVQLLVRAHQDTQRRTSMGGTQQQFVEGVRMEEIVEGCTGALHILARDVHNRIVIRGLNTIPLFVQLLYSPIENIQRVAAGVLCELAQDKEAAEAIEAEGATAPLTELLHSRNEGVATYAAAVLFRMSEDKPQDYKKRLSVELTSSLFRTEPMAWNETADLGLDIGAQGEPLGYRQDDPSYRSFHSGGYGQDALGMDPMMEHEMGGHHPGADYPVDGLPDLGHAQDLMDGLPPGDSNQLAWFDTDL
Assay: fluorescence polarization competition; displacement of 5FAM-TCF4(10-53) from full-length beta-catenin
Starred links: 1 amine or outer side, 2 acyl side, 3 side chain; linkers in the order of their positions; H or OH if unused. Positions of bridges follow the written chain, without caps; N, C: chain ends. Non-standard residues stand in square brackets, D forms with d. Groups on a side chain read outwards from the residue. Primed or numbered codes have the meaning given here. *: point of attachment. PyrS2″ = (S)-3-amino-1-((pent-4-en-1-yloxy)carbonyl)pyrrolidine-3-carboxylic acid (stapling residue), C=CCCCOC(=O)N1CC[C@@](N[*:1])(C(=O)[*:2])C1; B5(5) = 2,2-bis(4-pentenyl)glycine, 2-amino-2-(pent-4-en-1-yl)hept-6-enoic acid (stitching residue), C=CCCCC(CCCC=C)(N[*:1])C(=O)[*:2]; Lithocholoyl = C[C@H](CCC(=O)*)[C@H]1CC[C@H]2[C@@H]3CC[C@@H]4C[C@H](O)CC[C@]4(C)[C@H]3CC[C@]12C; B5(3) = 2,2-bis(4-pentenyl)glycine (stitching residue), C=CCCCC(CCCC=C)(N[*:1])C(=O)[*:2]; Me3AdamantC = 3,5,7-trimethyladamantane-1-carbonyl, CC12CC3(C)CC(C)(C1)CC(C(=O)*)(C2)C3; Bta = N[C@@H](Cc1csc2ccccc12)C(=O)O; αAllylPro = C=CC[C@@]1(C(=O)O)CCCN1; tBuAla = CC(C)(C)C[C@H](N)C(=O)O; 3Thi = N[C@@H](Cc1ccsc1)C(=O)O; PEG2′ = not defined here
Quick list: IC50 per entry.
Give just the numeric value; nM need not be written.

Dear colleague, I am looking for the recorded IC50 of the following binder: Ac-[αAllylPro]D[tBuAla][B5(5)]DDAAFL[PyrS2″][3Thi][Bta]QK(Lithocholoyl)-NH2 (staple 1-4, 4-11) [I-1477] 148

Dear colleague, I am looking for the recorded IC50 of the following binder: Ac-[αAllylPro]D[tBuAla][B5(3)]DDAAFL[PyrS2″][3Thi][Bta]QK([PEG2′-Me3AdamantC])-NH2 (staple 1-4, 4-11) [I-1480] 37
